target: DNA topoisomerase 2-alpha (Homo sapiens); assay: Inhibition of DNA topoisomerase 2 in human HeLa cells by kinetoplast DNA decantation assay
Sequence (P11388 whole entry): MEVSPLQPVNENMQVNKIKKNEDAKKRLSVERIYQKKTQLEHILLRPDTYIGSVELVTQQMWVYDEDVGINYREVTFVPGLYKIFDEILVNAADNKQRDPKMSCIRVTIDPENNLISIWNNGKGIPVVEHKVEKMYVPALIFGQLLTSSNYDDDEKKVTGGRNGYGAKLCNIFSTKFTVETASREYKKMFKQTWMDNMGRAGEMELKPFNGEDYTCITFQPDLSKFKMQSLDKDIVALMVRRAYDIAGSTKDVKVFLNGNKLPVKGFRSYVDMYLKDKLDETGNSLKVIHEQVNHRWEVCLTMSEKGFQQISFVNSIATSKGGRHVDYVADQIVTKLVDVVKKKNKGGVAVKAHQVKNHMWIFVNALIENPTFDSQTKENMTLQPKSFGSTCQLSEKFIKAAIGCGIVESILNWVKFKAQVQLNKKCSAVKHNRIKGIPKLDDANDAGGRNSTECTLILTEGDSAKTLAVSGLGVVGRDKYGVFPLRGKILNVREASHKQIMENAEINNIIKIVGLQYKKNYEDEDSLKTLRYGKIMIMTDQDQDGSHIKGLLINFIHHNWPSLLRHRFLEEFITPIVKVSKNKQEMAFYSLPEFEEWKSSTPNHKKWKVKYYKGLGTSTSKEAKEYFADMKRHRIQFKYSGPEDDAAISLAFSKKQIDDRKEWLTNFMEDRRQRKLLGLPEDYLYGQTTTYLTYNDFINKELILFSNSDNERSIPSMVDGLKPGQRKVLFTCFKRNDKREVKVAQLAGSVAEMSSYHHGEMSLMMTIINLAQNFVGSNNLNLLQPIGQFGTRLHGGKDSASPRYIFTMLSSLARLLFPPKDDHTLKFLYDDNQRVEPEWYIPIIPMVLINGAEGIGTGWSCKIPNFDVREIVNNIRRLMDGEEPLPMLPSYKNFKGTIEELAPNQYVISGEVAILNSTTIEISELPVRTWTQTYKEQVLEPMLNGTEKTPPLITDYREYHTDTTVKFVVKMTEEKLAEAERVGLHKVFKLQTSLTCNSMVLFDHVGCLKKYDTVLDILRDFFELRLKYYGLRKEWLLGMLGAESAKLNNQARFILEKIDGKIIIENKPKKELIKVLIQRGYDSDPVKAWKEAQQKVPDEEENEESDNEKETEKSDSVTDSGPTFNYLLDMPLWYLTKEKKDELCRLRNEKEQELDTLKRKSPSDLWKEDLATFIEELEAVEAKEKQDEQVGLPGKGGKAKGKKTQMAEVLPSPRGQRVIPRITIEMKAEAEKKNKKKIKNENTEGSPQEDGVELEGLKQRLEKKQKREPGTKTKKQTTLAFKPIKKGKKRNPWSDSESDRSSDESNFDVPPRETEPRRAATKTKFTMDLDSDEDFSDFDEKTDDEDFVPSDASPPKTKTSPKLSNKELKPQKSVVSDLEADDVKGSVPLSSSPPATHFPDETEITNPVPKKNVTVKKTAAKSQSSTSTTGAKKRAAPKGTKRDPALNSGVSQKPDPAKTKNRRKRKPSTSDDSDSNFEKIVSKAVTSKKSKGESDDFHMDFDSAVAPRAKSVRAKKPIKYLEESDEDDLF
property measured: IC50 (µM)
Use µM as the unit, but write only the number.

May I ask what IC50 has been recorded for O=c1ccc2c(ccc3ccoc32)o1 [BAKUCHICIN] ?
404
